Tested on: 293T human embryonic kidney cells
run-parameters: read-out: CC50, CellTiter-Glo 2.0 assay; transfected 293T cells, 30 h post-transfection
Non-standard residues stand in square brackets, D forms with d. Residues, ends and D or L forms follow the SMILES beside them. *: point of attachment. Nva = CCC[C@H](N)C(=O)O; Cbz = O=C(OCc1ccccc1)*
Answer each item with its documented CC50.
Answer in µM, number only, no unit symbol.

Enter CC50 (test system 293T human embryonic kidney cells) for CCC[C@@H](C=O)NC(=O)[C@H](CC(C)C)NC(=O)[C@H](CC(C)C)NC(=O)OCc1ccccc1 [MG-115] (Cbz-Leu-Leu-[Nva]-aldehyde)
11

Report the value of CC50 obtained on 293T human embryonic kidney cells for O=C1C(Cl)=C(NCCN2CCOCC2)C(=O)c2ncccc21 [DA-3003-1] .
7.7
